// data source = the supplement of paper PMC6992640

# Test system: WHIM2 (cells of a triple-negative basal-like breast cancer xenograft);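 note: PDX cells carrying CMV promoter-driven luciferase, viability read as total photon flux per second by IVIS imaging following D-luciferin, vehicle control 0.1% DMSO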
# Procedure text: cell viability (% of vehicle); higher = less cytotoxic
# Condition set: 10 µM; 72 h
Consider the cut-off 90. If the recorded cell viability is strictly smaller, the label is Met; if not, the label is Not met.

// known answers, use as guide
Molecule	Assayed target	Class
CCCCOc1ccc(C(=O)CCN2CCCCC2)cc1.Cl [Dyclonine HCl]	WHIM2	Met
CC(C)C(N)C(=O)OCCOCn1cnc2c(=O)nc(N)[nH]c21.Cl (configuration not stated) [Valaciclovir HCl]	WHIM2	Not met
CO[C@H]1C[C@@H]2CC[C@@H](C)[C@@](O)(O2)C(=O)C(=O)N2CCCC[C@H]2C(=O)O[C@H]([C@H](C)C[C@@H]2CC[C@@H](O)[C@H](OC)C2)CC(=O)[C@H](C)/C=C(\C)[C@@H](O)[C@@H](OC)C(=O)[C@H](C)C[C@H](C)/C=C/C=C/C=C/1C [Rapamycin (Sirolimus)]	WHIM2	Met
O=C1NC(=O)C(c2ccccc2)(c2ccccc2)N1 [Phenytoin]	WHIM2	Not met

Would you kindly look at the next entry?
Query: Quick check: cell viability of OCC1OC(OC2(CCl)OC(CCl)C(O)C2O)C(O)C(O)C1Cl (configuration not stated) [Sucralose] under 90?
Reply: Not met
